System: biotinyl-Ile-oxazolone
Assay: self-aminoacylation, catalytic enhancement (BIO) (fold over background); higher = more active; k-Seq, kA / k0A0; sequences stand for … in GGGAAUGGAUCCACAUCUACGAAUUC…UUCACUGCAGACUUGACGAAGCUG
Variants at the floor of the assay were thinned out.
quantityKind: self-aminoacylation

# primarySequence, self-aminoacylation
data = [
    ("AAGUUUGCUAAGUGUCGCAAG [Fam3.1 aminoacylation ribozyme variant]", 0.902),
    ("AACUUUGCAAAUAGUCGCAAG [Fam3.1 aminoacylation ribozyme variant]", 2.3),
    ("AUUACCCUGGUCACCCAGUGA [Fam2.1 aminoacylation ribozyme variant]", 4.12),
    ("UUUACCCUGGGCAUCGAGUGA [Fam2.1 aminoacylation ribozyme variant]", 2.3),
]

Now examine the next entry.
Record summary for AACUUUGCUAGUAGUCGCAAG [Fam3.1 aminoacylation ribozyme variant] : reported self-aminoacylation = 2.68

* * *

Test system: biotinyl-Leu-oxazolone
Experiment: self-aminoacylation, catalytic enhancement (BLO) (fold over background); higher = more active; k-Seq, kA / k0A0; sequences stand for … in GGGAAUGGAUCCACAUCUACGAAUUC…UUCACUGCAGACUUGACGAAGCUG
Fewer inactive variants are shown than the library holds.
# if value of self-aminoacylation reaches 3, tag Criterion met; if it stays below, tag Criterion not met

Example cases with answers are listed next.
# primarySequence, qualitativeLabel
measured = [
    ("AUUGCCCUGGGCAUCGAGUGA [Fam2.1 aminoacylation ribozyme variant]", "Criterion met"),
    ("AUCACCCUGGUCAUCGAGCGA [Fam2.1 aminoacylation ribozyme variant]", "Criterion met"),
    ("AAGUUUGCCUAUAGUCGCAAG [Fam3.1 aminoacylation ribozyme variant]", "Criterion not met"),
    ("AUUACCCUGGCCAUCGAGUGA [Fam2.1 aminoacylation ribozyme variant]", "Criterion met"),
    ("AUACACCUCGGUCAUCGGGUG [Fam2.2 aminoacylation ribozyme variant]", "Criterion met"),
    ("CUAUUUCAUACAAUCGGUCUG [Fam1A.1 aminoacylation ribozyme variant]", "Criterion not met"),
]

Inquiry: Say whether ACUACCCUGGUCAUCGGGUGA [Fam2.1 aminoacylation ribozyme variant] shows self-aminoacylation of 3 or more.
Reply text: Criterion met

Inquiry: Say whether AUUACCCUGGACUUCGAGUGA [Fam2.1 aminoacylation ribozyme variant] shows self-aminoacylation of 3 or more.
Reply text: Criterion met

Inquiry: Say whether CUACUUCAAAAAAUCGGUCUU [Fam1A.1 aminoacylation ribozyme variant] shows self-aminoacylation of 3 or more.
Reply text: Criterion not met

* * *

Test system: biotinyl-Met-oxazolone
Test: self-aminoacylation, catalytic enhancement (BMO) (fold over background); higher = more active; k-Seq, kA / k0A0; sequences stand for … in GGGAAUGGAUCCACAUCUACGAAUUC…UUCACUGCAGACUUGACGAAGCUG
Variants at the floor of the assay were thinned out.
Catalogue of self-aminoacylation readings, one per entry.

Field: example entries. Status: answers known.
# primarySequence, self-aminoacylation
data = [
    ("CCACUUAAAACAAUCGGUCUG [Fam1A.1 aminoacylation ribozyme variant]", 1.44),
    ("AAGUAUGCUAUUAGUCGCAAG [Fam3.1 aminoacylation ribozyme variant]", 1.38),
    ("CCACACUUCAACCAAUCGGUA [Fam1B.1 aminoacylation ribozyme variant]", 1.56),
    ("CUAAUUCAAACCAUCGGUCUG [Fam1A.1 aminoacylation ribozyme variant]", 0.817),
    ("GAGUUUGCUUAUAGUCGCAAG [Fam3.1 aminoacylation ribozyme variant]", 1.44),
    ("CCACACUUCAAGACAUCGGUC [Fam1B.1 aminoacylation ribozyme variant]", 0.914),
    ("CUACUACAAACAAGCGGUCUG [Fam1A.1 aminoacylation ribozyme variant]", 1.1),
    ("CCACACUUCAAUCAAUCGGUG [Fam1B.1 aminoacylation ribozyme variant]", 2.66),
    ("AUUCACCUAGCUCAUCGGGCG [Fam2.2 aminoacylation ribozyme variant]", 2.3),
    ("AUUACCCUGGUAAUCGAGUGG [Fam2.1 aminoacylation ribozyme variant]", 2.85),
]

Record summary for CUACUUCAAACGAUCGGCCUG [Fam1A.1 aminoacylation ribozyme variant] : reported self-aminoacylation = 1.33

Record summary for CUACUACAAACAAUCGGUCUC [Fam1A.1 aminoacylation ribozyme variant] : reported self-aminoacylation = 0.53

Record summary for CUAAUUCAUACAAUCGGUCUG [Fam1A.1 aminoacylation ribozyme variant] : reported self-aminoacylation = 0.637

Record summary for AUAACCCUGGUCAUCGAGUAA [Fam2.1 aminoacylation ribozyme variant] : reported self-aminoacylation = 3.64

Record summary for AAGAUUGCUAAUAGUCGAAAG [Fam3.1 aminoacylation ribozyme variant] : reported self-aminoacylation = 1.03
